# target-or-test-system: Staphylococcus aureus lipase (SAL) (Staphylococcus aureus, UniProt Q2G155)
# Sequence (Q2G155 297-690): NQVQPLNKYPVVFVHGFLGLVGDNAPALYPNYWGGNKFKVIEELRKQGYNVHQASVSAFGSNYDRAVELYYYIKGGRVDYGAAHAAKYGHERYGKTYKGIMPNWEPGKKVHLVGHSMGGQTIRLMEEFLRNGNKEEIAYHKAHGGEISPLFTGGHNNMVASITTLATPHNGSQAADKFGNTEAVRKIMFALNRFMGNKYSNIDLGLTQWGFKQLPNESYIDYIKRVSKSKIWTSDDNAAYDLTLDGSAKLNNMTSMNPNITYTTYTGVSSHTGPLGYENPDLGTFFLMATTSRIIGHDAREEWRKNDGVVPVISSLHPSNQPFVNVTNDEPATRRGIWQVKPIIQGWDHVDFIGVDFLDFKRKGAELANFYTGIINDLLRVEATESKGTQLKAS
# test-protocol: pNPB hydrolysis assay
# Format: biochemical
measured-attribute: IC50

// query IC50 value for entry O=c1[nH]c2ccccc2n1C1CCN(CCCC(c2ccc(F)cc2)c2ccc(F)cc2)CC1 [pimozide]
~48.5 µM
